Test: S. cerevisiae growth modulation with rapamycin, primary screen, strain BY4716, OD600, 96 h (AID 1091); further: test concentration not given here
Conditions: higher = more signal, called active from +8 up or from −8 down
# label = TRUE if z-score >= -0.2 else FALSE

Worked set:
O=C1C=C[C@@H](O)[C@@H]2[C@@H]3C(=O)N(Cc4ccc5c(c4)OCO5)C(=O)[C@@H]3CC[C@@H]12 = TRUE
OC[C@H]1O[C@H](C#Cc2ccccc2)C=C[C@@H]1O = FALSE
CC(C)C(=O)N[C@H]1CCCN1C(=O)C=Cc1ccccc1 = TRUE
COCC#Cc1ccc([C@@H]2N[C@H](C(=O)O)CC[C@H]2C)cc1 = FALSE
CO[C@@H]1COC(=O)[C@H](CCSC)NC(=O)CC=C[C@@H](C)COC(=O)[C@@H]2CCCN2C(=O)CC=C[C@H]1C = FALSE

-- ask Has O=C1[C@H]2CCn3c(=O)n(Cc4cc5c(cc4Cl)OCO5)c(=O)n3[C@H]2[C@H](O)[C@@H]2O[C@H]12 a recorded z-score greater than or equal to -0.2?
-- reply FALSE

-- ask One more compound: CC(C)=NO[C@@H](C)c1cn([C@H](CO)Cc2ccccc2)nn1
-- reply FALSE

-- ask One more compound: COc1ccc(OC[C@@H]2CC3[C@@H](c4ccc(Br)cc4)[C@H](C)CC[C@H]3C(=O)O2)cc1 (stereo partly specified)
-- reply TRUE

-- ask One more compound: O=C1[C@H]2[C@H]3[C@H](O)[C@H](O)CC(=NOC[C@@H](O)COCc4ccco4)[C@@H]3CC[C@H]2C(=O)N1Cc1ccc2c(c1)OCO2
-- reply TRUE

-- ask One more compound: CCOC(=O)CCN1C(=O)[C@H]2[C@H]3[C@H](O)[C@H](O)CC(=NNC(=O)OCc4ccc(OC)cc4)[C@H]3CC[C@H]2C1=O
-- reply FALSE

-- ask One more compound: CC(=O)OC[C@H]1O[C@@H](ON=C(C)C)[C@H](OC(C)=O)[C@@H](OC(C)=O)[C@@H]1OC(C)=O
-- reply TRUE

-- ask One more compound: C#CCCCON=C1C[C@@H](O)[C@@H](O)[C@@H]2[C@@H]3C(=O)N(C[C@@H]4CCCO4)C(=O)[C@@H]3CC[C@@H]12
-- reply FALSE

-- ask One more compound: CC(CCC(=O)OC[C@H]1O[C@H](C#Cc2ccccc2)C=C[C@@H]1Oc1ccc(C)cc1)=NOC[C@@H](C)[C@H](OCc1ccccc1)C(C)C
-- reply FALSE

-- ask One more compound: CCCNC(=O)OC[C@H]1O[C@H](CCON=C[C@@H](NS(=O)(=O)c2ccc(C)cc2)[C@H](C)C=CCC(=O)OC)C=C[C@@H]1Oc1ccc(OC)cc1
-- reply TRUE

-- ask One more compound: CC(=O)OC[C@H]1O[C@H](CCON=C(C)CCN2CCCc3nc(C)c(C)cc32)C=C[C@@H]1OC(C)=O
-- reply TRUE
